System: Hog Brain Phosphodiesterase (PDE)
assayRemarks: Inhibition of c-AMP hydrolysis by hog brain phosphodiesterase (PDE)
Type: biochemical
conditions: c-AMP 1.0, derivative 0.5 millimole/liter
metricName: Inhibition I: Relative Inhibition (%)

itemsmiles=CCCCCCCCCNc1nc2c(N)ncnc2n1[C@@H]1O[C@@H]2COP(=O)(O)O[C@H]2[C@H]1O metricname="Inhibition I: Relative Inhibition" observed=71.3

P: CCCCCCCCCCCNc1nc2c(N)ncnc2n1[C@@H]1O[C@@H]2COP(=O)(O)O[C@H]2[C@H]1O
Q: CCCCCCCCCCCCNc1nc2c(N)ncnc2n1[C@@H]1O[C@@H]2COP(=O)(O)O[C@H]2[C@H]1O
R: CCCCCCCSc1nc2c(N)ncnc2n1[C@@H]1O[C@@H]2COP(=O)(O)O[C@H]2[C@H]1O
S: CCCCCCCCCCCCCNc1nc2c(N)ncnc2n1[C@@H]1O[C@@H]2COP(=O)(O)O[C@H]2[C@H]1O
Enquiry: hey, can you rank those molecules up there by Inhibition I: Relative Inhibition? biggest number first please Please, when replying, give the labels in the order that was requested.
Return: R, P, Q, S

---

Tested on: Hog Brain Phosphodiesterase (PDE)
assayRemarks: Inhibition of c-AMP hydrolysis by hog brain phosphodiesterase (PDE)
Format: biochemical
conditions: c-AMP 1.0, derivative 1.0 millimole/liter
metricName: Inhibition I: Relative Inhibition (%)

itemsmiles=CCCCCCCCSc1nc2c(N)ncnc2n1[C@@H]1O[C@@H]2COP(=O)(O)O[C@H]2[C@H]1O metricname="Inhibition I: Relative Inhibition" observed=95.0

a: CCCCCCSc1nc2c(N)ncnc2n1[C@@H]1O[C@@H]2COP(=O)(O)O[C@H]2[C@H]1O
b: CCCCCCCCCCCCSc1nc2c(N)ncnc2n1[C@@H]1O[C@@H]2COP(=O)(O)O[C@H]2[C@H]1O
Enquiry: Which of these two has the smaller recorded Inhibition I: Relative Inhibition: a or b ? Record your answer as the label of the chosen record.
Return: b

---

System: Hog Brain Phosphodiesterase (PDE)
assayRemarks: Inhibition of c-AMP hydrolysis by hog brain phosphodiesterase (PDE)
Assay type: biochemical
conditions: c-AMP 1.0, derivative 1.0 millimole/liter
metricName: Inhibition I: Relative Inhibition (%)

Example cases with answers are listed next.
compound=CCCCCCCCCCCSc1nc2c(N)ncnc2n1[C@@H]1O[C@@H]2COP(=O)(O)O[C@H]2[C@H]1O metricname="Inhibition I: Relative Inhibition" observed=39.1
compound=CCCCNc1nc2c(N)ncnc2n1[C@@H]1O[C@@H]2COP(=O)(O)O[C@H]2[C@H]1O metricname="Inhibition I: Relative Inhibition" observed=55.6
compound=CCCCCCCNc1nc2c(N)ncnc2n1[C@@H]1O[C@@H]2COP(=O)(O)O[C@H]2[C@H]1O metricname="Inhibition I: Relative Inhibition" observed=78.2
compound=CCCNc1nc2c(N)ncnc2n1[C@@H]1O[C@@H]2COP(=O)(O)O[C@H]2[C@H]1O metricname="Inhibition I: Relative Inhibition" observed=51.1
compound="CNc1nc2c(N)ncnc2n1[C@@H]1O[C@@H]2COP(=O)(O)O[C@H]2[C@H]1O [8-CH3 NH-c-AMP, 8-methylamino-c-AMP, reference compound]" metricname="Inhibition I: Relative Inhibition" observed=47.6
compound=CCCCCSc1nc2c(N)ncnc2n1[C@@H]1O[C@@H]2COP(=O)(O)O[C@H]2[C@H]1O metricname="Inhibition I: Relative Inhibition" observed=76.7
compound=CCCSc1nc2c(N)ncnc2n1[C@@H]1O[C@@H]2COP(=O)(O)O[C@H]2[C@H]1O metricname="Inhibition I: Relative Inhibition" observed=60.1
compound=CCCCCNc1nc2c(N)ncnc2n1[C@@H]1O[C@@H]2COP(=O)(O)O[C@H]2[C@H]1O metricname="Inhibition I: Relative Inhibition" observed=62.3

I: CCCCSc1nc2c(N)ncnc2n1[C@@H]1O[C@@H]2COP(=O)(O)O[C@H]2[C@H]1O
II: Nc1ncnc2c1nc(Br)n2[C@@H]1O[C@@H]2COP(=O)(O)O[C@H]2[C@H]1O [Example 8-Br-c-AMP, 8-bromo-c-AMP, reference compound]
Enquiry: From the recorded data, which exceeds the other in Inhibition I: Relative Inhibition: I or II ? Record your answer as the label of the chosen record.
Return: I
(I: 64.3%, II: 38.9%)
